The reported numbers originate from ChEMBL document CHEMBL1122160.

tested on: Mus musculus; experiment: Tested for antitumor activity in vivo and the weight change in grams for the tumor in mouse was determined; type: functional
Respond with t for Weight change values of 0.1 g and above, f for values below.

compound="CSC1CC(C)(O)Cc2cc3c(c(O)c21)C(=O)c1c(O)cc2c(c1C3=O)OC1OC2(C)C(O)C(N(C)C)C1O (centres undefined)" target_of_assay="Mus musculus" label_class=f
compound="COc1c2c(cc3c1C(OC)CC(C)(O)C3)C(=O)c1c3c(cc(O)c1C2=O)C1(C)OC(O3)C(O)C(N(C)C)C1O (centres undefined)" target_of_assay="Mus musculus" label_class=t
compound="COC1CC(C)(O)Cc2cc3c(c(O)c21)C(=O)c1c(O)cc2c(c1C3=O)OC1OC2(C)C(O)C(N(C)C)C1O (centres undefined)" target_of_assay="Mus musculus" label_class=f
compound="CN(C)C1C(O)C2Oc3c(cc(O)c4c3C(=O)c3cc5c(c(O)c3C4=O)C(N=[N+]=[N-])CC(C)(O)C5)C(C)(O2)C1O (centres undefined)" target_of_assay="Mus musculus" label_class=f
compound="COC(=O)C1c2cc3c(c(O)c2CCC1(C)O)C(=O)c1c(O)cc2c(c1C3=O)OC1OC2(C)C(O)C(N(C)C)C1O (centres undefined)" target_of_assay="Mus musculus" label_class=f
compound=COC(=O)[C@@H]1c2cc3c(c(O)c2[C@@H](O[C@@H]2O[C@@H](C)[C@H](OC)[C@@](C)(OC)[C@H]2OC)C[C@]1(C)O)C(=O)c1c(O)cc2c(c1C3=O)O[C@H]1O[C@@]2(C)[C@@H](O)[C@@H](N(C)C)[C@@H]1O target_of_assay="Mus musculus" label_class=f
compound="C=CCOC1CC(C)(O)Cc2cc3c(c(O)c21)C(=O)c1c(O)cc2c(c1C3=O)OC1OC2(C)C(O)C(N(C)C)C1O (centres undefined)" target_of_assay="Mus musculus" label_class=t
compound="CN(C)C1C(O)C2Oc3c(cc(O)c4c3C(=O)c3cc5c(c(O)c3C4=O)CCC(C)(O)C5)C(C)(O2)C1O (centres undefined)" target_of_assay="Mus musculus" label_class=f

====

tested on: Mus musculus; test: Tested for antitumor activity in vivo and the weight change in grams for the tumor in mouse was determined; assay type: functional
Respond with fulfilled for Weight change values of -0.6 g and above, not fulfilled for values below.

compound="CNC1C(O)C2Oc3c(cc(O)c4c3C(=O)c3cc5c(c(O)c3C4=O)C(OC3OC(C)C(OC)C(C)(OC)C3OC)CC(C)(O)C5C(=O)OC)C(C)(O2)C1O (stereo unspecified)" target_of_assay="Mus musculus" label_class=fulfilled
compound="CN(C)C1C(O)C2Oc3c(cc(O)c4c3C(=O)c3cc5c(c(O)c3C4=O)C(N)CC(C)(O)C5)C(C)(O2)C1O (stereo unspecified)" target_of_assay="Mus musculus" label_class=fulfilled
compound="CNC1C(O)C2Oc3c(cc(O)c4c3C(=O)c3cc5c(c(O)c3C4=O)C(OC)CC(C)(O)C5)C(C)(O2)C1O (stereo unspecified)" target_of_assay="Mus musculus" label_class="not fulfilled"
compound="COC1C(C)OC(OC2CC(C)(O)Cc3cc4c(c(OC(C)=O)c32)C(=O)c2c(O)cc3c(c2C4=O)OC2OC3(C)C(OC(C)=O)C(N(C)C)C2OC(C)=O)C(OC)C1(C)OC (stereo unspecified)" target_of_assay="Mus musculus" label_class=fulfilled

====

tested on: L1210; assay: Micromolar concentration required to inhibit the growth of L1210 cells by 50% was determined; type: functional; details: Mus musculus, read-out: ID50 (the source's name)
Classes by IC50: low band = under 0.08 µM, middle band = from 0.08 µM up to 0.4 µM, high band = 0.4 µM and over

compound="COC1C(C)OC(OC2CC(C)(O)Cc3cc4c(c(OC(C)=O)c32)C(=O)c2c(O)cc3c(c2C4=O)OC2OC3(C)C(OC(C)=O)C(N(C)C)C2OC(C)=O)C(OC)C1(C)OC (stereo not drawn)" label_class="low band"
compound="C=CCOC1CC(C)(O)Cc2cc3c(c(O)c21)C(=O)c1c(O)cc2c(c1C3=O)OC1OC2(C)C(O)C(N(C)C)C1O (stereo not drawn)" label_class="middle band"
compound="COC1CC(C)(O)Cc2cc3c(c(O)c21)C(=O)c1c(O)cc2c(c1C3=O)OC1OC2(C)C(O)C(N(C)C)C1O (stereo not drawn)" label_class="low band"
compound="CN(C)C1C(O)C2Oc3c(cc(O)c4c3C(=O)c3cc5c(c(O)c3C4=O)CCC(C)(O)C5C(=O)O)C(C)(O2)C1O (stereo not drawn)" label_class="high band"
compound="CN(C)C1C(O)C2Oc3c(cc(O)c4c3C(=O)c3cc5c(c(O)c3C4=O)C(N)CC(C)(O)C5)C(C)(O2)C1O (stereo not drawn)" label_class="high band"
compound="COC(=O)C1c2cc3c(c(O)c2C(OC2OC(C)C(OC)C(C)(OC)C2OC)CC1(C)O)C(=O)c1c(O)cc2c(c1C3=O)OC1OC2(C)C(OC(C)=O)C(N(C)C)C1OC(C)=O (stereo not drawn)" label_class="low band"
compound="CN(C)C1C(O)C2Oc3c(cc(O)c4c3C(=O)c3cc5c(c(O)c3C4=O)C(N=[N+]=[N-])CC(C)(O)C5)C(C)(O2)C1O (stereo not drawn)" label_class="high band"
compound="COC1C(C)OC(OC2CC(C)(O)Cc3cc4c(c(O)c32)C(=O)c2c(O)cc3c(c2C4=O)OC2OC3(C)C(OC(C)=O)C(N(C)C)C2OC(C)=O)C(OC)C1(C)OC (stereo not drawn)" label_class="low band"
compound="COC1C(C)OC(OC2CC(C)(O)Cc3cc4c(c(O)c32)C(=O)c2c(O)cc3c(c2C4=O)OC2OC3(C)C(O)C(N(C)C=O)C2O)C(OC)C1(C)OC (stereo not drawn)" label_class="high band"
compound="COC(=O)C1c2cc3c(c(O)c2C(OC2OC(C)C(OC)C(C)(OC)C2OC)CC1(C)O)C(=O)c1c(O)cc2c(c1C3=O)OC1OC2(C)C(O)C(N(C)C=O)C1O (stereo not drawn)" label_class="high band"
compound="CNC1C(O)C2Oc3c(cc(O)c4c3C(=O)c3cc5c(c(O)c3C4=O)C(OC)CC(C)(O)C5)C(C)(O2)C1O (stereo not drawn)" label_class="middle band"
compound="CSC1CC(C)(O)Cc2cc3c(c(O)c21)C(=O)c1c(O)cc2c(c1C3=O)OC1OC2(C)C(O)C(N(C)C)C1O (stereo not drawn)" label_class="middle band"
compound="CNC1C(O)C2Oc3c(cc(O)c4c3C(=O)c3cc5c(c(O)c3C4=O)C(OC3OC(C)C(OC)C(C)(OC)C3OC)CC(C)(O)C5C(=O)OC)C(C)(O2)C1O (stereo not drawn)" label_class="middle band"

====

system: Mus musculus; assay: Tested for antitumor activity in vivo and the weight change in grams for the tumor in mouse was determined; type: functional
result type: Weight change (g)

molecule="COC1C(C)OC(OC2CC(C)(O)Cc3cc4c(c(O)c32)C(=O)c2c(O)cc3c(c2C4=O)OC2OC3(C)C(O)C(N(C)C)C2O)C(OC)C1(C)OC (stereo not drawn)" result_type="Weight change" numeric_result=-0.2
molecule="COC(=O)C1c2cc3c(c(O)c2C(OC2OC(C)C(OC)C(C)(OC)C2OC)CC1(C)O)C(=O)c1c(O)cc2c(c1C3=O)OC1OC2(C)C(OC(C)=O)C(N(C)C)C1OC(C)=O (stereo not drawn)" result_type="Weight change" numeric_result=-0.3
molecule="CN(C)C1C(O)C2Oc3c(cc(O)c4c3C(=O)c3cc5c(c(O)c3C4=O)C(OCCBr)CC(C)(O)C5)C(C)(O2)C1O (stereo not drawn)" result_type="Weight change" numeric_result=-1.3

====

# key: entry, value: IC50
system: L1210; assay: Micromolar concentration required to inhibit the growth of L1210 cells by 50% was determined; type: functional; conditions: Mus musculus, read-out: ID50 (the source's name)
result type: IC50 (nM)

molecule=COC(=O)[C@@H]1c2cc3c(c(O)c2[C@@H](O[C@@H]2O[C@@H](C)[C@H](OC)[C@@](C)(OC)[C@H]2OC)C[C@]1(C)O)C(=O)c1c(O)cc2c(c1C3=O)O[C@H]1O[C@@]2(C)[C@@H](O)[C@@H](N(C)C)[C@@H]1O unit_text=nM numeric_result=78
molecule="COc1c2c(cc3c1C(OC)CC(C)(O)C3)C(=O)c1c3c(cc(O)c1C2=O)C1(C)OC(O3)C(O)C(N(C)C)C1O (stereo not drawn)" unit_text=nM numeric_result=4500
molecule="CN(C)C1C(O)C2Oc3c(cc(O)c4c3C(=O)c3cc5c(c(O)c3C4=O)CCC(C)(O)C5)C(C)(O2)C1O (stereo not drawn)" unit_text=nM numeric_result=940

====

system: L1210; assay: Micromolar concentration required to inhibit the growth of L1210 cells by 50% was determined; type: functional; settings: Mus musculus, read-out: ID50 (the source's name)
pIC50: −log10 of the molar value.
Respond with Satisfied for pIC50 values of 6 and above, Not satisfied for values below.

compound="COC1C(C)OC(OC2CC(C)(O)Cc3cc4c(c(O)c32)C(=O)c2c(O)cc3c(c2C4=O)OC2OC3(C)C(O)C(N(C)C)C2O)C(OC)C1(C)OC (configuration not stated)" label_class=Satisfied
compound="C#CCOC1CC(C)(O)Cc2cc3c(c(O)c21)C(=O)c1c(O)cc2c(c1C3=O)OC1OC2(C)C(O)C(N(C)C)C1O (configuration not stated)" label_class=Satisfied
compound="CN(C)C1C(O)C2Oc3c(cc(O)c4c3C(=O)c3cc5c(c(O)c3C4=O)C(OCCBr)CC(C)(O)C5)C(C)(O2)C1O (configuration not stated)" label_class=Satisfied
compound="COC(=O)C1c2cc3c(c(O)c2CCC1(C)O)C(=O)c1c(O)cc2c(c1C3=O)OC1OC2(C)C(O)C(N(C)C)C1O (configuration not stated)" label_class=Satisfied
compound="COC1CC(C)(O)Cc2cc3c(c(O)c21)C(=O)c1c(O)cc2c(c1C3=O)OC1OC2(C)C(O)C(N(C)C=O)C1O (configuration not stated)" label_class="Not satisfied"
